Reference source: patent US9102648B1

Item-by-item account of Fold Induction, 13B3 Assay, 3.3 uM
# study.target: GAL4 DBD-CfEcR(DEF)/VP16AD-MmRXRE (Choristoneura fumiferana, UniProt O77240)
# experiment.description: 13B3 Assay (CHO stable cell line, luciferase reporter)
# run.parameters: 3.3 uM ligand; RLU ligand treated / RLU DMSO treated cells; average of two wells
Answer with the value's number alone.

Sample answers from the record:
COc1cccc(C(=O)NN(C(=O)c2cc(C)cc(C)c2)C(C)(C)C)c1N    1778
C=Cc1c(OC)cccc1C(=O)NN(C(=O)c1cc(C)cc(C)c1)C(C)(C)C    4081
CCc1ccc(C(=O)NN(C(=O)c2ccccc2[N+](=O)[O-])C(C)(C)C)cc1    1084
CCc1c(OC)cccc1C(=O)NN(C(=O)c1cc(C)ccc1[N+](=O)[O-])C(C)(C)C    755
COc1cccc(C(=O)NN(C(=O)c2cccc(C)c2)C(C)(C)C)c1C    3385

Now let's try a different one.
Query :: Any idea what Fold Induction, 13B3 Assay, 3.3 uM was measured for Cc1cc(C)cc(C(=O)N(NC(=O)c2ccc(CC#N)cc2)C(C)(C)C)c1 ?
Result :: 23

---

# study.target: Bombyx mori EcR (VP16 fusion, CVBE switch construct) (Bombyx mori, UniProt P49881)
# Sequence (P49881 86-606): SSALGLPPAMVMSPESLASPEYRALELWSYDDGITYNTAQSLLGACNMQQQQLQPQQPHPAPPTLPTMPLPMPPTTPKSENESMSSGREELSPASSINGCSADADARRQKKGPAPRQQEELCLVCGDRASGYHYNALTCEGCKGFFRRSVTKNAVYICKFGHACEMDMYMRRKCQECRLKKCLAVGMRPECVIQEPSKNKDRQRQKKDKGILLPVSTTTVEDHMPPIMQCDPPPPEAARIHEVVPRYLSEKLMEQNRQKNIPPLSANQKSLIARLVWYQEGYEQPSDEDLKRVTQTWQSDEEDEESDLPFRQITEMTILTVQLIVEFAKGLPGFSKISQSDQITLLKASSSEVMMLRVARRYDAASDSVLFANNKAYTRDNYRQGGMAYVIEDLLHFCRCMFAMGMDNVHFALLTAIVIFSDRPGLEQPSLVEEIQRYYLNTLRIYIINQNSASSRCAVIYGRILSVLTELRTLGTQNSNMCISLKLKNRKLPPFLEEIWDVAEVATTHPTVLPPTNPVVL
# Sequence (P19793 whole entry partner, the tested form may be a part): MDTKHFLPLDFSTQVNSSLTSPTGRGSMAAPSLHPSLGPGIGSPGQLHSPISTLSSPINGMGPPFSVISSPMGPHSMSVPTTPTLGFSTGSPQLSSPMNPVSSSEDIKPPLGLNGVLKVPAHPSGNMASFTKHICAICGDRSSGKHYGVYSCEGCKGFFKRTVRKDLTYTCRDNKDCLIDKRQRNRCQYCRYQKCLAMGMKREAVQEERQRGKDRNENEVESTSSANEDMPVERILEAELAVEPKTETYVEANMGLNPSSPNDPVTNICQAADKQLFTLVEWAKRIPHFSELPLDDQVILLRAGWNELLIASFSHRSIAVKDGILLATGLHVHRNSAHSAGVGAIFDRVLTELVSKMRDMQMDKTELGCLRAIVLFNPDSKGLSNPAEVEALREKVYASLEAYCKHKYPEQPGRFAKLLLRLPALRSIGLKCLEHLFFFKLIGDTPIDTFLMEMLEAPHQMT
# experiment.description: Z3 Assay (HEK-293 cells with CVBE and 6XEcRE LacZ, β-galactosidase reporter)
# run.parameters: 33 uM ligand; ligand treated / DMSO treated cells; average of two wells
property.name: Fold Induction, Z3 Assay, 33 uM
# answer = number (no unit)

CCc1c(C(=O)NN(C(=O)c2ccc(F)cc2)C(C)(C)C)ccc2c1OCOC2    389

Query :: Hello, I am looking for reported Fold Induction, Z3 Assay, 33 uM with Bombyx mori EcR (VP16 fusion, CVBE switch construct) (Bombyx mori, UniProt P49881) for CC(O)c1ccc(C(=O)NN(C(=O)c2cc(F)cc(F)c2)C(C)(C)C)cc1 (centres unmarked) . Could you help?
Result :: 427

Query :: // next record Cc1c(C(=O)NN(C(=O)c2cc(F)c(F)cc2F)C(C)(C)C)ccc2c1CCCO2
Result :: 1032

Query :: Lookup Cc1cc(C)cc(C(=O)N(NC(=O)c2cccc(OC(F)(F)F)c2C)C(C)(C)C)c1
Result :: 860

Query :: CC(C)(C)N(NC(=O)c1c(F)cccc1F)C(=O)c1cc(Cl)cc(Cl)c1 , same question.
Result :: 153

Query :: Okay, and CCc1c(C(=O)NN(C(=O)c2ccccc2OC)C(C)(C)C)ccc2c1OCOC2 ?
Result :: 878

Query :: Now consider CCc1c(OC)cccc1C(=O)NN(C(=O)c1cc(C)cc(COC(C)=O)c1)C(C)(C)C .
Result :: 1299

Query :: Note, next up: CCCC(N(NC(=O)c1cccc(OC)c1C)C(=O)c1cc(OC)c(C)c(OC)c1)C(C)(C)C (centres unmarked)
Result :: 737

---

# study.target: GAL4 DBD-CfEcR(DEF)/VP16AD-MmRXRE (Choristoneura fumiferana, UniProt O77240)
# experiment.description: 13B3 Assay (CHO stable cell line, luciferase reporter)
# run.parameters: 3.3 uM ligand; RLU ligand treated / RLU DMSO treated cells; average of two wells
Lab note: compare Fold Induction, 13B3 Assay, 3.3 uM with 900, writing class 1 if less and class 0 if equal or more.

Worked set:
COc1cc(C)ccc1C(=O)N(NC(=O)c1cccc(OC)c1C)C(C)(C)C    class 0
CCc1c(C(=O)NN(C(=O)c2ccc(Cl)cc2F)C(C)(C)C)ccc2c1OCCO2    class 0
Cc1cc(C)cc(C(=O)N(NC(=O)c2ccc3c(c2C)CCCO3)C(C)(C)C)c1    class 1

Query :: Strictly below 900 in Fold Induction, 13B3 Assay, 3.3 uM? CCc1c(OC)cccc1C(=O)NN(C(=O)c1cccc(Br)c1)C(C)(C)C#N
Result :: class 1

Query :: Moving on to CCc1c(OC)cccc1C(=O)NN(C(=O)c1ccccc1[N+](=O)[O-])C(C)(C)C
Result :: class 0

Query :: One more compound: COc1ccccc1C(=O)N(NC(=O)c1ccc2c(c1C)CCCO2)C(C)(C)C
Result :: class 0

Query :: Next record, please: COCc1c(OC)cccc1C(=O)NN(C(=O)c1cc(C)cc(C)c1)C(C)(C)C
Result :: class 1
